Data provenance is patent US20110097341A1.

Consider the following binders; for each one, report its IC50 (1.5 pM NGF), NGF-dependent survival of mouse E13.5 trigeminal neurons.
# measured on: rat NGF (rat, UniProt P25427 122-241)
# Sequence (P25427 122-241 limits assumed): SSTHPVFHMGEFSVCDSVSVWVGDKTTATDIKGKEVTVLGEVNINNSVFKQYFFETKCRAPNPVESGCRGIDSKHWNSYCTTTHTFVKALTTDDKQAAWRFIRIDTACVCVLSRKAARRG
# experimental details: cell-based or functional assay

Asked: Request the reported IC50 (1.5 pM NGF), NGF-dependent survival of mouse E13.5 trigeminal neurons associated with Fab E3 (Fab, V domains shown) VH: QVQLQESGPGLVKPSETLSLTCTVSGFSLIGYDLNWIRQPPGKGLEWIGIIWGDGTTDYNSAVKSRVTISKDTSKNQFSLKLSSVTAADTAVYYCARGGYWYATSYYFDYWGQGTLVTVS VL: DIQMTQSPSSLSASVGDRVTITCRASQSISNNLNWYQQKPGKAPKLLIYYTSRFHSGVPSRFSGSGSGTDFTFTISSLQPEDIATYYCQQEHTLPYTFGQGTKLEIKR
Given back: < 1.3 pM

Asked: Request the reported IC50 (1.5 pM NGF), NGF-dependent survival of mouse E13.5 trigeminal neurons associated with 3C (Fab, V domains shown) VH: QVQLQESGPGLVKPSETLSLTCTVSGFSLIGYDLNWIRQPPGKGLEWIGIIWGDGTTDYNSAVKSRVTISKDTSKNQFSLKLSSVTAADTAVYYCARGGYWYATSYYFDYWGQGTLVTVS VL: DIQMTQSPSSLSASVGDRVTITCRASQSISNNLNWYQQKPGKAPKLLIYYTSRFHSGVPSRFSGSGSGTDFTFTISSLQPEDIATYYCQQERTLPYTFGQGTKLEIKR
Given back: 6 pM

Asked: Request the reported IC50 (1.5 pM NGF), NGF-dependent survival of mouse E13.5 trigeminal neurons associated with 8L2-6D5 (Fab, V domains shown) VH: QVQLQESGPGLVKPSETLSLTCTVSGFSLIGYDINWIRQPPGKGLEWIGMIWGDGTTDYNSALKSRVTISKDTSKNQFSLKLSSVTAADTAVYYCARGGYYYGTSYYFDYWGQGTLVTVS VL: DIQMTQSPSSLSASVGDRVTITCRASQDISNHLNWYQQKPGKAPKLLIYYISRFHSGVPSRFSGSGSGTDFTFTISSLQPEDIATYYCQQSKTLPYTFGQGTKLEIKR
Given back: 169 pM

Asked: Request the reported IC50 (1.5 pM NGF), NGF-dependent survival of mouse E13.5 trigeminal neurons associated with H19-L129 (Fab, V domains shown) VH: QVQLQESGPGLVKPSETLSLTCTVSGFSLIGYDLNWIRQPPGKGLEWIGIIWGDGTTDYNSAVKSRVTISKDTSKNQFSLKLSSVTAADTAVYYCARGGYYYGTSYYFDYWGQGTLVTVS VL: DIQMTQSPSSLSASVGDRVTITCRASQSISNNLNWYQQKPGKAPKLLIYYTSRFHSGVPSRFSGSGSGTDFTFTISSLQPEDIATYYCQQSKTLPYTFGQGTKLEIKR
Given back: 6 pM
